Just for reference, patent US20230227453A1 is where these values come from.

Molecular target: 5-HT2C edited (accession number AAF35842.1) (Homo sapiens, UniProt P28335, I156V/I160V/N158S)
Sequence (P28335 33-458 I156V/N158S/I160V limits assumed): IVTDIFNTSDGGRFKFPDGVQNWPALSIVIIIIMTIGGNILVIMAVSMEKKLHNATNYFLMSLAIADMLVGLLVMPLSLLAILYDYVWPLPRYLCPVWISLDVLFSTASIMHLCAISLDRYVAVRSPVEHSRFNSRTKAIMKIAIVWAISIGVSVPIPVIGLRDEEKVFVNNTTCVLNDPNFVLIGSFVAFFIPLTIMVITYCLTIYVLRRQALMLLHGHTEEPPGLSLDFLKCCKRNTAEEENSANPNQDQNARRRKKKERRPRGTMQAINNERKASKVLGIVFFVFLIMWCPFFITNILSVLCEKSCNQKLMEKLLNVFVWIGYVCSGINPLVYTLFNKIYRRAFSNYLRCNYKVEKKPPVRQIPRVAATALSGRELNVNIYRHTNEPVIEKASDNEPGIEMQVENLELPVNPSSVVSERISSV
Assay: cell-based
pEC50: −log10 of the molar value.
measurement_type: pEC50

Worked set:
Ask: Could you share which pEC50 value was measured for CN1CCc2[nH]c3ncc(Cl)cc3c2CC1 ?
Result: 7.00 to 8.00

Ask: Could you share which pEC50 value was measured for Cn1c2c(c3cc(Cl)cnc31)CCN(C1COC1)CC2 ?
Result: 5.00 to 6.00

Ask: Could you share which pEC50 value was measured for COc1ccc2c3c([nH]c2n1)CCN(C)CC3 ?
Result: 6.00 to 7.00

Ask: Could you share which pEC50 value was measured for COc1ccc2c3c(n(C)c2n1)CCN(C)CC3 ?
Result: 6.00 to 7.00

Ask: Could you share which pEC50 value was measured for COc1ccc2c3c(n(C)c2n1)CCNCC3 ?
Result: 7.00 to 8.00

Proceed to the following item.
Ask: Could you share which pEC50 value was measured for Cn1c2c(c3ccc(Br)nc31)CCNCC2 ?
Result: > 8.00
